Answer each item with its documented fraction unbound at 6 h.
- experimentNotes: Unbound fraction in plasma (unknown origin) under normal atmospheric condition at pH 7.22 after 6 hrs by equilibrium dialysis method
- Type: ADME, cell-free
A bare number is all that is needed in reply.

Task item: For the molecule shown here, CCN(CC)C(=O)C1(c2ccccc2)CC1CN (configuration not stated) , give the reported fraction unbound at 6 h.
Reply: 0.809

Task item: For the molecule shown here, N[C@@H]1C[C@H]1c1ccccc1.N[C@H]1C[C@@H]1c1ccccc1 (racemic) , give the reported fraction unbound at 6 h.
Reply: 0.63

Task item: For the molecule shown here, CC(C)NCC(O)COc1cccc2ccccc12 (configuration not stated) , give the reported fraction unbound at 6 h.
Reply: 0.315

Task item: For the molecule shown here, CNCCC(Oc1ccc(C(F)(F)F)cc1)c1ccccc1 (configuration not stated) , give the reported fraction unbound at 6 h.
Reply: 0.079

Task item: For the molecule shown here, NC(=O)N1c2ccccc2C=Cc2ccccc21 [CARBAMAZEPINE] , give the reported fraction unbound at 6 h.
Reply: 0.303

Task item: For the molecule shown here, `Cc1ncc2n1-c1ccc(Cl)cc1C(c1ccccc1F)=NC2` , give the reported fraction unbound at 6 h.
Reply: 0.034

Task item: For the molecule shown here, `O=C(CCCN1CCC(O)(c2ccc(Cl)cc2)CC1)c1ccc(F)cc1` , give the reported fraction unbound at 6 h.
Reply: 0.223
